Listing of entries alongside the reported melting point.
READOUT TYPE: melting point

>>> recorded_value("C=CCOc1cc(CC(C#N)=CNc2ccccc2)cc(OCC=C)c1NC(C)=O")
"176 to 178 °C"
>>> recorded_value("CCCCCC(=O)NS(=O)(=O)/C=C/c1cc(OCCCC)nn1Cc1ccc(Cl)cc1Cl")
"117 to 119 °C"
>>> recorded_value("Cc1cc(NC(=O)C2=C(O)c3ccc4ccccc4c3S(=O)(=O)N2C)no1")
"253 °C"
>>> recorded_value("Cc1nc(-n2cnn(Cc3ccc(F)cc3)c2=O)sc1C(=O)NCc1cn(C)cn1")
"225 to 226 °C"

====

READOUT TYPE: melting point

>>> recorded_value("C=Cn1nc(-c2cc(C(C)(C)C)c(O)c(C(C)(C)C)c2)c2ccc(C)nc21")
"136 to 137 °C"
>>> recorded_value("CCCc1c(O)c(C(C)=O)cc(Cl)c1OCCCOc1ccc2ccc(OCC(=O)O)cc2c1C(C)=O")
"132 to 134 °C"
>>> recorded_value("Clc1ccc2nc(Cl)c3[nH]c4ccccc4c3c2c1")
"265 to 266 °C"

====

READOUT TYPE: melting point

>>> recorded_value("CO/C=C(/C(=O)OC)n1cccc1")
"88 to 89 °C"
>>> recorded_value("Nc1c(-c2ccc(Cl)cc2)nc2ccc(Cl)cc2c1C(=O)O")
"240 to 241 °C"
>>> recorded_value("N#Cc1cnc(N[C@@H]2CCCc3ccccc32)nc1N")
"168 °C"
>>> recorded_value("C#Cc1ccc(NC(=O)N[C@H](CCC)C(=O)Nc2ccc(N3CCOCC3=O)cc2)cc1")
"182 °C"
>>> recorded_value("O=C(NCc1ccccn1)OCCOCCOC(=O)NCC1CCCCC1")
"65 to 67 °C"
>>> recorded_value("Cn1c(COc2ccc(CC3SC(=O)NC3=O)cc2)nc2ccccc21 (configuration not stated)")
"230 to 231 °C"
>>> recorded_value("CN(C)C(=O)CCC(=NNC(N)=S)c1ccccc1")
"173 to 175 °C"

====

READOUT TYPE: melting point

>>> recorded_value("CN1CCCC1=NC(=O)Nc1c(Cl)cccc1Cl")
"134 to 136 °C"
>>> recorded_value("COc1ccc2[nH]c(=O)cc(CCCl)c2c1")
"231 to 232 °C"
>>> recorded_value("CCC(=O)c1cc(CC)c(O)cc1O")
"74 to 75 °C"
>>> recorded_value("N#CC1=C(Nc2cccc(F)c2)CCC1")
"98 to 100 °C"
>>> recorded_value("CCOC(=O)C1Cc2c([nH]c3cccc(C#N)c23)CN1 (stereo not given)")
"248 °C"

====

READOUT TYPE: melting point

>>> recorded_value("CC(C)(C)c1cc(C(=O)c2ccc(N)cc2)cc(C(C)(C)C)c1O")
"164 to 166 °C"
>>> recorded_value("O=C1Cc2cc(F)c(N3C(=O)C4=C(CCCC4)C3=O)cc2N1")
"234 to 236 °C"
>>> recorded_value("COC(=O)C1(C)CCc2cc(C(=O)c3ccccc3)c(OC)cc21 (stereo not given)")
"135 to 137 °C"
>>> recorded_value("COC(=O)C(C)(C)N(OC(C)(C)C#N)C(C)(C)C")
"78 to 85 °C"
>>> recorded_value("CS(=O)(=O)c1ccc(N2CC=C(N3CCCC3)CC2)cc1")
"141 to 143 °C"
>>> recorded_value("CCN1CN(C)C(=S)N(c2cc(Cl)ccc2C)C1")
"93 to 95 °C"
>>> recorded_value("CSCC[C@@H](NC(=O)OC(C)(C)C)C(=O)Oc1c(Cl)c(Cl)c(Cl)c(Cl)c1Cl")
"133 to 134 °C"
>>> recorded_value("CCCCOc1c(-c2cc(C=CC(=O)O)ccc2OC)cc(C(C)(C)C)cc1C(C)(C)C")
"204 to 206 °C"
>>> recorded_value("CN1CCN(c2ccc3cc(Cl)ccc3n2)CC1")
"141 to 142 °C"
>>> recorded_value("COCc1noc(N2CCC([C@H]3C[C@H]3CCOc3ccc(S(C)(=O)=O)cn3)CC2)n1")
"68 to 70 °C"
>>> recorded_value("Oc1cc(-c2cc3n(n2)CCCC3)c(F)cc1Cl")
"218 to 220 °C"
>>> recorded_value("CCOC(=O)C1=C(C)NC(c2cscn2)=NC1c1cccc(OC)c1 (stereo not given)")
"140 to 142 °C"
>>> recorded_value("O=Cc1c2ccc(F)cc2c(C=O)c2ccc(F)cc12")
"240 to 242 °C"
>>> recorded_value("O=C(N1CCOCC1)N1Cc2c(-c3nc4ccccc4o3)ncn2-c2ccccc21")
"288 to 290 °C"
>>> recorded_value("CCc1cc(S(=O)(=O)c2ccc(N)cc2)cc(N2CCCC2)n1")
"154 to 155 °C"
>>> recorded_value("Cc1cc(-c2coc3ccc(-c4nnc(C)o4)cc23)ccn1")
"151 to 152 °C"
>>> recorded_value("O=c1oc2c(c(O)c1Br)c(=O)n(Cc1ccccc1)c1ccccc21")
"226 to 229 °C"
>>> recorded_value("COc1cccc(CN2CCc3cc(O)c(OC)cc3C2)c1")
"161 to 162 °C"
>>> recorded_value("COC(=O)c1nc2c(NC(=O)C(C)(C)C)cccn2c1C")
"132 °C"
>>> recorded_value("C=CCN(C)CCNc1ccnc2cc(Cl)ccc12")
"91 to 93 °C"
